Each recorded value in this set is attributed to patent US8633245B2.

tested.on: recombinant human PAI-1 (Homo sapiens, UniProt P05121)
Construct: purchased Molecular Innovations, Inc
Sequence (P05121 24-402): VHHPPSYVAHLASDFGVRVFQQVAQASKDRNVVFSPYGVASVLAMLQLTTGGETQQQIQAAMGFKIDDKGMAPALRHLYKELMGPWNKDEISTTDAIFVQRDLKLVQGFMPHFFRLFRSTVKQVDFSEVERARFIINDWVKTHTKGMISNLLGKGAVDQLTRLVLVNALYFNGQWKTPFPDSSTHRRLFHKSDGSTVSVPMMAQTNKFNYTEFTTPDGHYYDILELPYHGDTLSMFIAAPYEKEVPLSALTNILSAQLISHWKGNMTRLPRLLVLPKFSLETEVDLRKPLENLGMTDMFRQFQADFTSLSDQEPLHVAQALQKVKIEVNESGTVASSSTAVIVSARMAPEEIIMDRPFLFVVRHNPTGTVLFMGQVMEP
method: Test Example 2: human PAI-1 inhibitory activity (tPA fluorogenic substrate, pH 7.4 HEPES buffer)
Type: biochemical
condition.context: human PAI-1; compound concentration 10 μM
Each entry below lists one item and its recorded Inhibition Rate of PAI-1 Activity (%) value.
Lab book: enter the figure in %, no units written.

Example entries begin here.
O=C(O)CC(=O)N(Cc1ccccc1)c1ccc(-c2ccc(OC(F)(F)F)cc2)cc1F
78
CN(C(=O)c1ccc(N(Cc2ccc(C(C)(C)C)cc2)C(=O)C(=O)O)cc1)c1ccc(OC(F)(F)F)cc1
78
CC(C)(C)c1ccc(COc2ccc(N3CCN(c4ccc(OC(F)(F)F)cc4)CC3)cc2/C=C/C(=O)O)cc1
94
CC(C)(C)c1ccc(CN(C(=O)CCCC(=O)O)c2ccc(-c3ccc(OC(F)(F)F)cc3)cc2)cc1
36

Let me check: CC(C)(C)c1ccc(CN(C(=O)C(=O)O)c2ccc(N3CCN(c4ccccc4)CC3)cc2)cc1 , system recombinant human PAI-1 (Homo sapiens, UniProt P05121), measured Inhibition Rate of PAI-1 Activity (%) is 57
